Molecular target: UniProt:P14902
Sequence (P14902 whole entry): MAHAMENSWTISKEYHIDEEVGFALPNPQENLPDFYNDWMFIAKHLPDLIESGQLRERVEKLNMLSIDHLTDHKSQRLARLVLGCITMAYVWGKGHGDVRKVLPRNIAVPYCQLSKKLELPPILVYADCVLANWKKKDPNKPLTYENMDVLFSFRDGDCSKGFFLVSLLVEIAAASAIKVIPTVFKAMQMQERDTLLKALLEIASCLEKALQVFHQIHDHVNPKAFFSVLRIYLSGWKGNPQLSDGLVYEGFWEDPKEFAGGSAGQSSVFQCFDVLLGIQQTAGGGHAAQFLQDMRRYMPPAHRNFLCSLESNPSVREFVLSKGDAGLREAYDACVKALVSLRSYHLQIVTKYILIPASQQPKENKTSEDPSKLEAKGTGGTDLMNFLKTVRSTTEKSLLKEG
Experiment: IDO1 Enzyme Assay
Conditions: IDO1 Enzyme Assay, IC50, nM, HIS-tagged recombinant IDO1, 40 nM
Listed here are compounds together with their documented IC50.
A complete answer gives the number followed by the unit.

Guide cases for IC50, answers given:
compound	IC50
O=C(CSc1nonc1C(=NO)Nc1ccc(F)c(Br)c1)NC1CCC1	36.9 nM
ON=C(Nc1ccc(F)c(Br)c1)c1nonc1SCc1ncon1	58.8 nM

For the compound "CN(C)C(=O)CSc1nonc1C(=NO)Nc1ccc(F)c(Br)c1" , what IC50 is on record?
59.6 nM

For the compound "CCNC(=O)CSc1nonc1C(=NO)Nc1ccc(F)c(Br)c1" , what IC50 is on record?
48.5 nM

For the compound "O=C(CSc1nonc1C(=NO)Nc1ccc(F)c(Br)c1)N1CCC[C@@H]1CO" , what IC50 is on record?
106 nM

For the compound "Cc1nccn1CCSc1nonc1C(=NO)Nc1ccc(F)c(Br)c1" , what IC50 is on record?
96.3 nM

For the compound O=C(CSc1nonc1/C(=N/O)Nc1ccc(F)c(Br)c1)NCC(O)CN1CCOCC1 (single isomer, unassigned) [Example 207] , what IC50 is on record?
43.1 nM

For the compound "ON=C(Nc1ccc(F)c(Br)c1)c1nonc1SCCc1cscn1" , what IC50 is on record?
97.6 nM

For the compound CC(C)(O)C(O)CSc1nonc1/C(=N/O)Nc1ccc(F)c(Cl)c1 (single isomer, unassigned) [Example 190] , what IC50 is on record?
79.1 nM

For the compound "ON=C(Nc1ccc(F)c(Br)c1)c1nonc1SCCF" , what IC50 is on record?
65.7 nM

For the compound "ON=C(Nc1ccc(F)c(Br)c1)c1nonc1SCc1c[nH]cn1" , what IC50 is on record?
105 nM

For the compound "ON=C(Nc1ccc(F)c(Br)c1)c1nonc1SCC1CCOCC1" , what IC50 is on record?
111 nM

For the compound "Cc1nc(CSc2nonc2C(=NO)Nc2ccc(F)c(Br)c2)no1" , what IC50 is on record?
77.7 nM

For the compound CC(C)(O)C(O)CSc1nonc1/C(=N/O)Nc1ccc(F)c(Br)c1 (stereo not drawn) [Example 29] , what IC50 is on record?
81.3 nM

For the compound CC(O)CNC(=O)CSc1nonc1C(=NO)Nc1ccc(F)c(Br)c1 (stereo not drawn) , what IC50 is on record?
38.7 nM

For the compound "COCCNC(=O)NCCSc1nonc1C(=NO)Nc1ccc(F)c(Br)c1" , what IC50 is on record?
32.1 nM

For the compound "CC#CCSc1nonc1C(=NO)Nc1ccc(F)c(Br)c1" , what IC50 is on record?
169 nM

For the compound "O=C(CSc1nonc1C(=NO)Nc1ccc(F)c(Br)c1)N1CCCC1" , what IC50 is on record?
112 nM

Data provenance: patent US10538497B2
